- targetSystem: Human EGF receptor tyrosine kinase (Homo sapiens, UniProt P00533)
- Construct: Human EGF receptor tyrosine kinase is isolated from A431 human epidermoid carcinoma cells; endogenous in cells
- Sequence (P00533 25-1210): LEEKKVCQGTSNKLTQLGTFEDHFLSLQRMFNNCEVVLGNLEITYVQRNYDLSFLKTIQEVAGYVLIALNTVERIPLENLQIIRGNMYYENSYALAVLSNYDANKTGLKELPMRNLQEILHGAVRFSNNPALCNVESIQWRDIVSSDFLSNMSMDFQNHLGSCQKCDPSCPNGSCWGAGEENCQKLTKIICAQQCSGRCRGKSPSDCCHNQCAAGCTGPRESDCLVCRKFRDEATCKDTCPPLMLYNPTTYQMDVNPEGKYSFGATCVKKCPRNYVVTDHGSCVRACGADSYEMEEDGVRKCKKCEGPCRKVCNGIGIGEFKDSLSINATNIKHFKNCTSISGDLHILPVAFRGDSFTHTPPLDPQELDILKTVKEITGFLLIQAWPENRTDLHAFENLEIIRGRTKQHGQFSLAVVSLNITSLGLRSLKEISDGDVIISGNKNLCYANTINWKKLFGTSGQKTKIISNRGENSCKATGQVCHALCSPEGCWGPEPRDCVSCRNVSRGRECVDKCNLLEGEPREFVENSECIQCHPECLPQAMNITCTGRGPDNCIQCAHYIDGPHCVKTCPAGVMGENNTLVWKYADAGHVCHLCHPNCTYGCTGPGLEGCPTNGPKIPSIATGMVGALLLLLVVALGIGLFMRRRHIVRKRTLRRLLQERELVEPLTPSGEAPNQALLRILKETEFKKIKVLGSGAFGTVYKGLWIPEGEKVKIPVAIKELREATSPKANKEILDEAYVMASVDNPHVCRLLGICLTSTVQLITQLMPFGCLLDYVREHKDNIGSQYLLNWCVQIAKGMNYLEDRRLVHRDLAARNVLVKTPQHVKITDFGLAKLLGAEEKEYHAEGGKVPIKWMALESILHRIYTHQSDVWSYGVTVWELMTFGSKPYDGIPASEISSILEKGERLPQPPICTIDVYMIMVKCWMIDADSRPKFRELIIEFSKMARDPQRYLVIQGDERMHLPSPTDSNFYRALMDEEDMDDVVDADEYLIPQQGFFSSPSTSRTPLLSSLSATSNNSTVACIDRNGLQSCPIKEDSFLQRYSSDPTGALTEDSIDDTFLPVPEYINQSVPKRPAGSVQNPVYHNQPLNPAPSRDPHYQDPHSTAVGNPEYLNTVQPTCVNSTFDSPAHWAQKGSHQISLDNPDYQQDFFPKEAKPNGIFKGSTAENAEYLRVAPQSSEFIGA
- testProtocol: EGFr tyrosine kinase assay
- setupConditions: Table 1; 10 μM ATP, 25° C., 10 minutes
pIC50: −log10 of the molar value. Counter-ions that a name gives are not always drawn.
measurementLabel: pIC50

# molecule, measurementLabel, result
records = [
    ("c1ccc(-n2cnc3cc(OCCCN4CCOCC4)ccc32)cc1 [Example 39, Dihydrochloride]", "pIC50", "< 4.40"),
]

The value of pIC50 measured for the molecule COC(=O)c1ccc(-n2cnc3ccccc32)cc1 [Example 7, 1-(4-Carbomethoxyphenyl)benzimidazole] turned out to be < 4.30

The value of pIC50 measured for the molecule COC(=O)c1ccc2ncn(-c3ccccc3)c2c1 [Example 43, Hydrochloride] turned out to be < 4.30

The value of pIC50 measured for the molecule COC(=O)c1ccc2c(c1)ncn2-c1ccccc1 [Example 17] turned out to be < 4.30

The value of pIC50 measured for the molecule Oc1cccc2c1ncn2-c1ccccc1 [Example 11, Hydrochloride] turned out to be < 4.30

The value of pIC50 measured for the molecule NC(=O)c1ccc2c(c1)ncn2-c1ccccc1 [Example 18, Hydrochloride] turned out to be < 4.30

====

pIC50: −log10 of the molar value. Where a name gives a salt, the structure may show the parent alone.
Record type: pIC50 measurement. Applies to: c-Src (Homo sapiens)

// below: answered compounds
# compound, pIC50
rows = [
    ("Oc1ccc(-n2cnc3ccccc32)cc1 [Example 6, Hydrochloride]", "< 4.30"),
    ("c1ccc(-n2cnc3cnccc32)cc1 [Example 22, Hydrochloride]", "< 4.30"),
    ("COC(=O)c1cc2c(cc1OC)ncn2-c1ccccc1 [Example 51, Hydrochloride]", 4.48),
]

// returns pIC50 for CN(C)CCOc1ccc2c(c1)ncn2-c1ccccc1 [Example 36, Dihydrochloride] with c-Src (Homo sapiens); value = 4.54

// returns pIC50 for OCc1ccc2c(c1)ncn2-c1ccccc1 [Example 26, 5-(Hydroxymethyl)-1-phenylbenzimidazole] with c-Src (Homo sapiens); value = < 4.30

// returns pIC50 for COc1cc2ncn(-c3ccccc3)c2cc1OC [Example 46, Hydrochloride] with c-Src (Homo sapiens); value = 4.40

// returns pIC50 for Nc1ccc2c(c1)ncn2-c1ccccc1 with c-Src (Homo sapiens); value = < 4.30

// returns pIC50 for COc1ccc(-n2cnc3ccccc32)cc1 [Example 5, Hydrochloride] with c-Src (Homo sapiens); value = < 4.30

// returns pIC50 for c1ccc(-n2cnc3cc(OCCN4CCOCC4)ccc32)cc1 [Example 38, Dihydrochloride] with c-Src (Homo sapiens); value = < 4.30

====

- targetSystem: c-Src (Homo sapiens)
- Sequence (P12931 whole entry, species assumed): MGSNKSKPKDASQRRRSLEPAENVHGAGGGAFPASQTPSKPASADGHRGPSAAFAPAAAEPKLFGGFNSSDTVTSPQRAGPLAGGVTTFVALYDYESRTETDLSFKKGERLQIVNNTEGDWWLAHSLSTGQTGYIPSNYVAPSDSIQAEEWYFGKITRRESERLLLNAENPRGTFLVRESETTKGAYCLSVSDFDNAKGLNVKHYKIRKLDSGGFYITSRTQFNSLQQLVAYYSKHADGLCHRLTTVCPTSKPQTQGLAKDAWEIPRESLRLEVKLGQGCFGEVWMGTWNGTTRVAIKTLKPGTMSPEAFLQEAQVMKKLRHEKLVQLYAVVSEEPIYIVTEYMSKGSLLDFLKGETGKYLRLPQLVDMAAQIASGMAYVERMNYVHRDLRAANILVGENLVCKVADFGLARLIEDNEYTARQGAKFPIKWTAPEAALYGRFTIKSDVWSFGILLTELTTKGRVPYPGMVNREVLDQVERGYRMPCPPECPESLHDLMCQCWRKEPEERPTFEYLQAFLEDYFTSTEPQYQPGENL
Structures can show the parent of a compound that is named as a salt.
measurementLabel: IC50

# compound, targetSystem, result
records = [
    ("COC(=O)c1ccc(-n2cnc3ccccc32)cc1", "c-Src (Homo sapiens)", "> 50 µM"),
    ("CC(=O)Nc1ccc2c(c1)ncn2-c1ccccc1 [Example 23, Hydrochloride]", "c-Src (Homo sapiens)", "< 50 µM"),
    ("CN(C)CCCOc1ccc2c(c1)ncn2-c1ccccc1 [Example 37, Dihydrochloride]", "c-Src (Homo sapiens)", "14 µM"),
    ("O=Cc1ccc(-n2cnc3ccccc32)cc1", "c-Src (Homo sapiens)", "> 50 µM"),
    ("CN(C)CCCCOc1ccc2c(c1)ncn2-c1ccccc1 [Example 58, Dihydrochloride]", "c-Src (Homo sapiens)", "50 µM"),
]

// returns IC50 for COc1ccc2c(c1)ncn2-c1cccs1 [Example 55, Hydrochloride] with c-Src (Homo sapiens); value = > 50 µM

// returns IC50 for C=CCOc1ccc2c(c1)ncn2-c1ccccc1 [Example 32, Hydrochloride] with c-Src (Homo sapiens); value = > 50 µM

// returns IC50 for O=C(O)c1ccc2c(c1)ncn2-c1ccccc1 [Example 16, Hydrochloride] with c-Src (Homo sapiens); value = 50 µM
